- Measured on: UniProt:P34969
- Sequence (P34969 whole entry, species assumed): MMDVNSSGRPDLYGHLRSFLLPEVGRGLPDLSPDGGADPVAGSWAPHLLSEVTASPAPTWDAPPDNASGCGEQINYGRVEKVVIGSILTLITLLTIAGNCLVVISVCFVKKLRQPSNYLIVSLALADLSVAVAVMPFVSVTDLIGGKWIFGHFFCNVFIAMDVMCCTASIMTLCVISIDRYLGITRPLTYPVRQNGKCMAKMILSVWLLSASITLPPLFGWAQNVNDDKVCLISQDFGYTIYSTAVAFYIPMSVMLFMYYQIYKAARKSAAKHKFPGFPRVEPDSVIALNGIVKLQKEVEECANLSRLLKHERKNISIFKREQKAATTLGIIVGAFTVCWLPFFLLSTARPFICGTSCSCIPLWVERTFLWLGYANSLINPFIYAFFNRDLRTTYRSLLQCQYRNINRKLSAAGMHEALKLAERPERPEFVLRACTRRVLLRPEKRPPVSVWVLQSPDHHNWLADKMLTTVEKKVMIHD
- Experimental details: PDSP radioligand binding assay
- Cond: Table 5
pKi: −log10 of the molar value.
Quantity name: pKi

>>> measured("COc1ccc(N2CCN(CCCNC(=O)Cn3c(=O)c4cccn4c4c(C)ccnc43)CC2)cc1 [Compound 1{3}]")
"< 5.00"

###

Reported EC50 values for the following compounds.
- Measured on: KOR (Homo sapiens)
- Sequence (P41145 whole entry): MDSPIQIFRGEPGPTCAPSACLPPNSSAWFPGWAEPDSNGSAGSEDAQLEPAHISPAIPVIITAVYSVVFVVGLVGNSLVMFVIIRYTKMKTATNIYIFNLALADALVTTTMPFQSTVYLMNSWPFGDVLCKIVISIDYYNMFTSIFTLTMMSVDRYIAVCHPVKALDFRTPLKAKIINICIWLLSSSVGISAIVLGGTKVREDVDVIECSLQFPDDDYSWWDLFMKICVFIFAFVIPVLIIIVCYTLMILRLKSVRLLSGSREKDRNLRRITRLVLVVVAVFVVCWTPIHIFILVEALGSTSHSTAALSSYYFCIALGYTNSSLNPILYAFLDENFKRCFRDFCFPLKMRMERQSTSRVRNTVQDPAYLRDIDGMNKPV
- Experimental details: High content imaging based β-arrestin translocation assay, KOR agonist (KOR HCS)
- Assay type: cell-based
- Cond: n = 2, read-out: Average Potency KOR HCS
Quantity name: EC50 (µM)

>>> measured("FC(F)(F)c1ccc(CSc2nnc(-c3ccccn3)n2Cc2cccs2)cc1")
0.6
>>> measured("Clc1ccc(CSc2nnc(-c3ccccn3)n2Cc2ccco2)c(Cl)c1")
0.93
>>> measured("CC(C)c1ccc(CSc2nnc(-c3ccccn3)n2Cc2cccs2)cc1")
2.2
>>> measured("Fc1ccc(CSc2nnc(-c3ccccn3)n2Cc2cccs2)c(F)c1")
5.68
>>> measured("Clc1ccccc1CSc1nnc(-c2ccccn2)n1Cc1ccco1")
11.6
>>> measured("c1ccc(CSc2nnc(-c3ccccn3)n2Cc2cccs2)cc1")
23.5
>>> measured("Brc1ccc(CSc2nnc(-c3ccccn3)n2Cc2ccco2)cc1")
1.36
>>> measured("Clc1ccc(CSc2nnc(-c3ccccn3)n2Cc2cccs2)cc1Cl")
0.43
>>> measured("FC(F)(F)c1cc(CSc2nnc(-c3ccccn3)n2Cc2cccs2)ccc1Cl")
1.4
>>> measured("FC(F)(F)c1ccc(CSc2nnc(-c3ccccn3)n2Cc2ccco2)cc1")
1.25
>>> measured("Clc1cccc(CSc2nnc(-c3ccccn3)n2Cc2ccco2)c1")
3.63
>>> measured("Cc1ccc(CSc2nnc(-c3ccccn3)n2Cc2cccs2)cc1")
2.38
>>> measured("Brc1ccc(CSc2nnc(-c3ccccn3)n2Cc2cccs2)cc1")
1.1
>>> measured("COC(=O)c1ccc(CSc2nnc(-c3ccccn3)n2Cc2cccs2)cc1")
6
>>> measured("COc1cccc(CSc2nnc(-c3ccccn3)n2Cc2cccs2)c1")
12.2
>>> measured("O=[N+]([O-])c1ccc(CSc2nnc(-c3ccccn3)n2Cc2ccco2)cc1")
2.35
>>> measured("Cc1cc(C)c(CSc2nnc(-c3ccccn3)n2Cc2cccs2)c(C)c1")
9.5
>>> measured("Fc1ccc(CSc2nnc(-c3ccccn3)n2Cc2cccs2)c(C(F)(F)F)c1")
2.25
>>> measured("Fc1ccc(CSc2nnc(-c3ccccn3)n2Cc2ccco2)c(C(F)(F)F)c1")
5.4
>>> measured("Fc1ccc(CSc2nnc(-c3ccccn3)n2Cc2cccs2)c(F)c1F")
1.7
>>> measured("Fc1cccc(F)c1CSc1nnc(-c2ccccn2)n1Cc1cccs1")
20.9
>>> measured("COc1ccc(CSc2nnc(-c3ccccn3)n2Cc2cccs2)cc1")
5.98
>>> measured("COC(=O)c1ccc(CSc2nnc(-c3ccccn3)n2Cc2ccco2)cc1")
18.5
>>> measured("Fc1ccc(CSc2nnc(-c3ccccn3)n2Cc2ccco2)c(F)c1F")
5.3
>>> measured("Cc1c(CSc2nnc(-c3ccccn3)n2Cc2cccs2)cccc1[N+](=O)[O-]")
4.2
>>> measured("CC(C)(C)c1ccc(CSc2nnc(-c3ccccn3)n2Cc2ccco2)cc1")
0.6
>>> measured("CC(C)c1ccc(CSc2nnc(-c3ccccn3)n2Cc2ccco2)cc1")
2.8
>>> measured("Clc1ccc(CSc2nnc(-c3ccccn3)n2Cc2cccs2)c(Cl)c1")
8.11
>>> measured("N#Cc1ccc(CSc2nnc(-c3ccccn3)n2Cc2ccco2)cc1")
19
